From: patent EP4541814A1

Subject Of Test: AAV9 viral particles (adeno-associated virus 9)
Assay Text: SPR (Biacore), polypeptide amine-coupled to CM5, AAV9 analyte; response normalized to SEQ ID NO:80
Observable: Normalized AAV9 binding capacity (%)
Write the value in % as a bare number.

vh255 (SEQ ID NO:99) (VHH) VHH: QVQLQQSGGGSVQAGGSLRLSCTSSGRTLSDYTMGWFRQRPGKEREFVAAISWSGAYTKYADSVKGRFTISRDNAKNTVYLQMNSLKPEDTAVYYCAAGPTGLLSKKATPADYDYWGQGTQVTVSS = 103

Moving on to the next binder.
Can you look up the measured Normalized AAV9 binding capacity (%) of vh332 (SEQ ID NO:96) (VHH) VHH: QVQLQQSGGGSVQAGGSLRLSCVISGRTLSDYTMGWFRQRPGKEREFVAAISWSGAYTKYADSVKGRFTISRDNAKNTVYLQMNSLKPEDTAVYYCAAGPTGLLSKKATPADYDYWGQGTQVTVSS for me?
98
